# key: entry, value: binding signal
- assay system: HNF4alpha2 (COS-7 nuclear extract) (Homo sapiens, UniProt P41235 1-474)
- Sequence: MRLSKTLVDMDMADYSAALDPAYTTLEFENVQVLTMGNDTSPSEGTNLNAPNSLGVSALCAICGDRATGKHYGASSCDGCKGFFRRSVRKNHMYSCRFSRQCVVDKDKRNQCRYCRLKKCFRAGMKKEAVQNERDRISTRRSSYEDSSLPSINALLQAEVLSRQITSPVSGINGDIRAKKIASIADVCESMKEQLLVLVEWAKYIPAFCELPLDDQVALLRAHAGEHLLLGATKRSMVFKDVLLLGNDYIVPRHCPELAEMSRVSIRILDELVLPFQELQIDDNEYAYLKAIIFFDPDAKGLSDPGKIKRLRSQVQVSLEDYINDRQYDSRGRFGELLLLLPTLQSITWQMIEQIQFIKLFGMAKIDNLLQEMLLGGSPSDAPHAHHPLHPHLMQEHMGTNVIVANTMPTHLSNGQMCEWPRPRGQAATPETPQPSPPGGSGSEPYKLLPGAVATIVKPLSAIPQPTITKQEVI
- measurement protocol: protein-binding microarray; COS-7 nuclear extract on double-stranded Agilent 4x180k PBM; binding buffer, salt, pH and temperature not given in the material; high values mean tight binding
- particulars: chain copies: 2; label: 3' end of strand 1 on the slide; dsDNA, one strand shown
In all, about 18,000 sequences were measured (“log2 normalized intensity”: median about 0.39, highest 2% from about 6.6 on). The entries come from a sample that favours the highest values as a whole.

seq text | units | binding signal
ACCAGGGGGCAGAGTGAGCAGCACTTTTGGGCCTAGGGAGATTAGAGTATCGGTCGA | log2 normalized intensity | -0.845
CAAAGGGTCAAGTTCAGATCCTGGCCATGCGCCTAGGGAGATTAGAGTATCGGTCGA | log2 normalized intensity | 0.748
ACCATCCACGGATGCATGATTGCTCTCTACGCCTAGGGAGATTAGAGTATCGGTCGA | log2 normalized intensity | -0.932
TCTGACCTCTTTCAAGCCTGAACAAACATGGCCTAGGGAGATTAGAGTATCGGTCGA | log2 normalized intensity | 0.93
GGCTATACAATTCCAGCAAGGATGGGGGCAGCCTAGGGAGATTAGAGTATCGGTCGA | log2 normalized intensity | -0.832
CCAGTTTTCCCAAAGGAGCTTTATTGGTTCGCCTAGGGAGATTAGAGTATCGGTCGA | log2 normalized intensity | 1.5
ATAGGAGGATTTTATTCAGGTGGCCACTGGGCCTAGGGAGATTAGAGTATCGGTCGA | log2 normalized intensity | 1.03
AACTTCTTCCAATGAAAGGTTAACCTGCTGGCCTAGGGAGATTAGAGTATCGGTCGA | log2 normalized intensity | 1.36
TGCCCTGGACATATTTGTCTTCCTATCTCCGCCTAGGGAGATTAGAGTATCGGTCGA | log2 normalized intensity | 0.887
